- assay-details: Liver microsomal stability, human
- Type: in vitro ADME
- run-conditions: 37° C., 4 μM compound, 30 minutes
Recorded Human Liver microsome stability (reported in % remaining) for the following molecules
observable: Human Liver microsome stability (reported in % remaining)

molecule	measurement
C#Cc1ccc2c(c1)C(c1ccccn1)=NCc1c(-c3cnco3)ncn1-2	91 % remaining
C#Cc1ccc2c(c1)C(c1ccccn1)=NCc1c(C(=O)OCC)ncn1-2	80 % remaining
Fc1ccccc1C1=NCc2c(-c3cnco3)ncn2-c2ccc(Br)cc21	62 % remaining
C#Cc1ccc2c(c1)C(c1ccccc1)=NCc1c(-c3cnco3)ncn1-2	74 % remaining
C#Cc1ccc2c(c1)C(c1ccccc1F)=NCc1c(-c3cnco3)ncn1-2 [KRM-II-18B]	78 % remaining

* * *

- assay-details: Pharmacokinetics and brain concentration after 10 mg/kg P.O. dose, rats
- Assay type: in vivo
- run-conditions: rat; 10 mg/kg oral dose, brain; read-out: free fraction
observable: fraction unbound

1) C#Cc1ccc2c(c1)C(c1ccccn1)=NCc1c(-c3cnco3)ncn1-2 0.18

* * *

- assay-details: Liver microsomal stability, dog
- Type: in vitro ADME
- run-conditions: 37° C., 4 μM compound, 30 minutes
observable: Dog Liver microsome stability (reported in % remaining)

compound	unit	measurement
C#Cc1ccc2c(c1)C(c1ccccn1)=NCc1c(-c3cnco3)ncn1-2	% remaining	94
C#Cc1ccc2c(c1)C(c1ccccc1)=NCc1c(-c3cnco3)ncn1-2	% remaining	86
Fc1ccccc1C1=NCc2c(-c3cnco3)ncn2-c2ccc(Br)cc21	% remaining	77
C#Cc1ccc2c(c1)C(c1ccccn1)=NCc1c(C(=O)OCC)ncn1-2	% remaining	97
C#Cc1ccc2c(c1)C(c1ccccc1F)=NCc1c(-c3cnco3)ncn1-2 [KRM-II-18B]	% remaining	87

* * *

- assay-details: Single-dose pharmacokinetics and brain concentrations, IV and IP, rats
- Type: in vivo, Sprague-Dawley rats
- run-conditions: male, Sprague-Dawley, rat, brain/plasma (unbound); 10 mg/kg IP dose, 4 hour
observable: Kp uu at 4 h

1) C#Cc1ccc2c(c1)C(c1ccccn1)=NCc1c(-c3cnco3)ncn1-2 0.67

* * *

- assay-details: Liver microsomal stability, rat
- Type: in vitro ADME
- run-conditions: 37° C., 4 μM compound, 30 minutes
Rat Liver microsome stability (reported in % remaining) strictly under 70 % remaining means 1; at 70 % remaining or over means -1.

smiles-repr	label-value
C#Cc1ccc2c(c1)C(c1ccccn1)=NCc1c(-c3cnco3)ncn1-2	-1
Fc1ccccc1C1=NCc2c(-c3cnco3)ncn2-c2ccc(Br)cc21	1
C#Cc1ccc2c(c1)C(c1ccccn1)=NCc1c(C(=O)OCC)ncn1-2	1

* * *

- assay-details: Pharmacokinetics after 10 mg/kg P.O. dose, mice
- Assay type: in vivo
- run-conditions: mouse, blood, po, read-out: Cmax (highest concentration found in blood)
observable: Cmax (ng/mL)

1) C#Cc1ccc2c(c1)C(c1ccccn1)=NCc1c(C(=O)OCC)ncn1-2 4.11

* * *

Recorded melting point for the following compounds
observable: melting point

1) Cc1ncoc1-c1ncn2c1CN=C(c1ccccc1F)c1cc(Br)ccc1-2 138 to 140 °C
2) Fc1ccccc1C1=NCc2c(-c3cnco3)ncn2-c2ccc(Br)cc21 190 to 192 °C
3) C#Cc1ccc2c(c1)C(c1ccccc1F)=NCc1c(-c3ocnc3C)ncn1-2 145 to 147 °C
4) C#Cc1ccc2c(c1)C(c1ccccc1)=NCc1c(-c3ocnc3C)ncn1-2 228 to 230 °C
